Assay: Equilibrium solubility in water and bio-relevant media (SGF, FaSSIF, FeSSIF)
Conditions: final solution in H2O
Would you please tag the item Y when its pH is 4 or above, and N when it is below?

Hello, I need to know if CC(C)C1C2CCC(C2)C1N.Cl (racemic) [HCl salt Type A, reference compound] has measured pH not below 4. Thanks! Y

What do you have for CC(C)[C@@H]1[C@H]2CC[C@H](C2)[C@H]1N.O=C(O)/C=C\C(=O)O [Maleate Type A] ? N

// next record CC(C)[C@@H]1[C@H]2CC[C@H](C2)[C@H]1N (racemic) [Phosphate Type B] Y

Query CC(C)[C@@H]1[C@H]2CC[C@H](C2)[C@H]1N [L-malate Type C] next Y

Next molecule up: CC(C)[C@@H]1[C@H]2CC[C@H](C2)[C@H]1N.O=C(O)/C=C/C(=O)O [Fumarate Type A] N

Now the same for CC(C)[C@@H]1[C@H]2CC[C@H](C2)[C@H]1N.O=C(O)CCC(=O)O [Succinate Type A] Y
